ASSAY TEXT: Two-period crossover pharmacokinetics of nalmefene 3 mg IN vs 1.0 mg IM (Example 12)
PARTICULARS: human, plasma, im, 1 mg, AUC0-15 min, Treatment B: 1.0 mg nalmefene IM (gluteal muscle); plasma; Geo. Mean, n 68
PARAMETER: AUC(0-t) (ng·h/mL)
// note: answer is a bare numeric in ng·h/mL

Q: Returns the measured AUC(0-t) for the input molecule. Input: C=C1CC[C@@]2(O)[C@H]3Cc4ccc(O)c5c4[C@@]2(CCN3CC2CC2)[C@H]1O5 [Nalmefene]
Result: 0.142

* * *

ASSAY TEXT: Three-treatment crossover pharmacokinetics of IN nalmefene, three dosing regimens (Example 13)
PARTICULARS: human, plasma, other: intranasal (IN) spray, 3 mg, […], Median, T1 (3 mg IN, one spray in one nostril); time 0.250
PARAMETER: concentration at […] (ng/mL)
// note: answer is a bare numeric in ng/mL

Q: Returns the measured concentration at […] for the input molecule. Input: `C=C1CC[C@@]2(O)[C@H]3Cc4ccc(O)c5c4[C@@]2(CCN3CC2CC2)[C@H]1O5`
Result: 8.04

* * *

ASSAY TEXT: Two-period crossover pharmacokinetics of nalmefene 3 mg IN vs 1.0 mg IM (Example 12)
PARTICULARS: human, plasma, intramuscular, 1 mg, Mean plasma concentration, Treatment B 1.0 mg IM; […]
PARAMETER: concentration at 48 h (ng/mL)
// note: answer is a bare numeric in ng/mL

Q: Returns the measured concentration at 48 h for the input compound. Input: `C=C1CC[C@@]2(O)[C@H]3Cc4ccc(O)c5c4[C@@]2(CCN3CC2CC2)[C@H]1O5`
Result: 0.0491

* * *

ASSAY TEXT: Three-treatment crossover pharmacokinetics of IN nalmefene, three dosing regimens (Example 13)
PARTICULARS: human, plasma, other: intranasal (IN spray), 6 mg, AUC0-15 min, mean, Treatment B (T2) 3 mg in each nostril (6 mg)
PARAMETER: AUC(0-t) (ng·h/mL)
// note: answer is a bare numeric in ng·h/mL

Q: Returns the measured AUC(0-t) for the input compound. Input: C=C1CC[C@@]2(O)[C@H]3Cc4ccc(O)c5c4[C@@]2(CCN3CC2CC2)[C@H]1O5 [Nalmefene]
Result: 2.67

* * *

ASSAY TEXT: Three-treatment crossover pharmacokinetics of IN nalmefene, three dosing regimens (Example 13)
PARTICULARS: human, plasma, other: intranasal (IN spray), 6 mg, AUClast, mean, Treatment B (T2) 3 mg in each nostril (6 mg)
PARAMETER: AUC(0-t)
Please append the unit to your numeric answer.

Q: Returns the measured AUC(0-t) for the input compound. Input: `C=C1CC[C@@]2(O)[C@H]3Cc4ccc(O)c5c4[C@@]2(CCN3CC2CC2)[C@H]1O5`
Result: 86.2 ng·h/mL

* * *

ASSAY TEXT: Two-period crossover pharmacokinetics of nalmefene 3 mg IN vs 1.0 mg IM (Example 12)
PARTICULARS: human, plasma, intramuscular, 1 mg, Median plasma concentration, Treatment B 1.0 mg IM; […]
PARAMETER: concentration at 18 h (ng/mL)
// note: answer is a bare numeric in ng/mL

Q: Returns the measured concentration at 18 h for the input molecule. Input: `C=C1CC[C@@]2(O)[C@H]3Cc4ccc(O)c5c4[C@@]2(CCN3CC2CC2)[C@H]1O5`
Result: 0.341
